For each record, write down the corresponding selectivity ratio.
- test_protocol: Selectivity index, ratio of IC50 for mouse RAW264.7 cells to MIC for Mycobacterium tuberculosis H37Rv
- Type: toxicity
- conditions_used: read-out: Selectivity Index

These recorded examples may help you get a feel for the data.
c1cnc(N2CCN(c3nc4ccccc4c4ccccc34)CC2)nc1    > 25
c1ccc(N2CCN(c3nc4ccccc4c4ccccc34)CC2)nc1    > 25

// switching to the query compound
Entry O=[N+]([O-])c1ccc(N2CCN(c3nc4ccccc4c4ccccc34)CC2)cc1 , selectivity ratio reported as > 25
